test system: U2OS; assay: Multiplex assay against U2OS; format: toxicity, cell-based; conditions: human, 24 h, 10 µM, compound concentration 10 uM, replicate 1
MET if Population Hoechst High Intensity Objects (%) is below 3%. NOT MET if not; exact matches included in NOT MET.

>>> print(df.to_string())
                                   compound  class_label
0  CN1CCN2c3ncccc3Cc3ccccc3C2C1 (configuration not stated)          MET
1            O=C(O)Cc1ccccc1Nc1c(Cl)cccc1Cl          MET
2           c1cc(OCCCN2CCCCC2)ccc1CN1CCCCC1          MET
3  CC1(COc2ccc3c(c2)ncn3-c2ccc3cccc(N4CCC(N)CC4)c3n2)COC1      NOT MET
4  Cc1ccc(F)cc1C(=O)Nc1ccc(C(=O)N2Cc3cccn3Cc3ccccc32)c(Cl)c1      NOT MET
5  O=C1COc2nccc(-c3ccccc3F)c2CN1Cc1cc(C(F)(F)F)cc(C(F)(F)F)c1      NOT MET
6  Cl.Clc1ccc2nsnc2c1NC1=NCCN1 [TIZANIDINE HYDROCHLORIDE]          MET
7  Oc1c(CN2CCN(c3ccccn3)CC2)cc(Cl)c2cccnc12      NOT MET

* * *

system: HEK-293T; experiment: Multiplex assay against HEK293T; type: toxicity, cell-based; conditions: human, 24 h, 1 µM, compound concentration 1 uM, replicate 1
ATTRIBUTE_MEASURED: Population Normal (%)

                                    compound  target_under_test  reading
 0  Cc1ccccc1C(=O)Nc1ccc(C(=O)N2CCCC(N(C)C)c3ccccc32)cc1.Cl (stereo unspecified)           HEK-293T      94%
 1  O=C(O)c1cc2ccccc2c(Cc2c(O)c(C(=O)O)cc3ccccc23)c1O           HEK-293T      93%
 2  C[C@H]1[C@H]2CC[C@H]3[C@@H]4CC=C5C[C@@H](N(C)C)CC[C@]5(C)[C@H]4CC[C@]23CN1C           HEK-293T      94%
 3  C[C@H](NC(=O)c1c(C(F)F)nn(C)c1Oc1cccc(C(F)(F)F)c1)c1ccc(C(=O)O)cc1           HEK-293T      94%
 4   CNC[C@H](O)c1ccc(O)c(O)c1 [EPINEPHRINE]           HEK-293T      94%
 5  N#Cc1c(N)nc(SCc2csc(-c3ccc(Cl)cc3)n2)c(C#N)c1-c1ccc(OCCO)cc1           HEK-293T      93%
 6   CN(C)c1ccnc2sc3c(=O)n(N4CCCCCC4)cnc3c12           HEK-293T      95%
 7  O=C1COc2nccc(-c3ccccc3F)c2CN1Cc1cc(C(F)(F)F)cc(C(F)(F)F)c1           HEK-293T      96%
 8  O=S(=O)(c1ccccc1)c1cnc2c(N3CCNCC3)cccc2c1 [INTEPIRDINE]           HEK-293T      94%
 9  COc1ccc2c(c1)C(C(=O)N(Cc1ccc(N(C)C)cc1)c1ccc(C(C)C)cc1)CCC2.Cl (stereo unspecified)           HEK-293T      96%
10  C[C@@H]1C[C@H]2[C@@H]3CCC4=CC(=O)C=C[C@]4(C)[C@@]3(F)[C@@H](O)C[C@]2(C)[C@@]1(O)C(=O)CO           HEK-293T      95%
11  COc1ccccc1N1CCN(CCCCNC(=O)c2ccc3ccccc3c2)CC1.Cl           HEK-293T      93%
12  CC1(COc2ccc3c(c2)ncn3-c2ccc3cccc(N4CCC(N)CC4)c3n2)COC1           HEK-293T      97%
13  COc1cc(C(=O)N(CCCc2ccccc2)Cc2ccc(CC(=O)O)cc2)cc(OC)c1C           HEK-293T      94%
14           c1cc(OCCCN2CCCCC2)ccc1CN1CCCCC1           HEK-293T      94%
15  COc1cc(NC(=O)CCN2CCC(OC(=O)Nc3ccccc3-c3ccccc3)CC2)c(Cl)cc1CNC[C@H](O)c1ccc(O)c2[nH]c(=O)ccc12           HEK-293T      94%
